Test system: A2780
Test: Antiproliferative activity against human A2780 cells assessed as reduction in cell viability incubated for 48 hrs by MTT assay
Assay type: functional, cell-based
Conditions: A2780, 48 h
readoutLabel: pIC50
One number for each entry, as −log10 of the molar value.

Consider the following items and state reported pIC50 for each.
1. CCOc1ccc(C2=NC2c2cc(OC)c(OC)c(OC)c2)cc1 (configuration not stated)
2. COc1ccc(C2N=C2c2cc(OC)c(OC)c(OC)c2)cc1OC (configuration not stated)
3. COc1ccc(C2N=C2c2cc(OC)c(OC)c(OC)c2)cc1F (configuration not stated)
4. COc1ccc(C2=NC2c2cc(OC)c(OC)c(OC)c2)cc1F (configuration not stated)
5. COc1ccc(C2C(c3cc(OC)c(OC)c(OC)c3)N2C)cc1F (configuration not stated)
6. COc1cc(C2N=C2c2ccc3c(c2)OCO3)cc(OC)c1OC (configuration not stated)
7. COc1ccc(C2N=C2c2cc(OC)c(OC)c(OC)c2)cc1 (configuration not stated)
8. COc1cc(C2=NC2c2ccc(C)cc2)cc(OC)c1OC (configuration not stated)

6.24
5.53
6.80
6.72
5.33
5.81
6.48
6.62

Consider the following items and state reported pIC50 for each.
1. COc1cc(C2N=C2c2ccccc2)cc(OC)c1OC (configuration not stated)
2. COc1cc(C2=NC2c2ccccc2)cc(OC)c1OC (configuration not stated)
3. COc1cc(C2=NC2c2ccc3c(c2)OCO3)cc(OC)c1OC (configuration not stated)
4. COc1cc(C2=NC2c2ccc3ccccc3c2)cc(OC)c1OC (configuration not stated)

6.03
5.46
5.76
5.08
